assayed.target: HLA-B*07:02
protocol.text: IEDB peptide-MHC binding, purified MHC/direct/fluorescence; filed as Kd, often an IC50 or EC50 that approximates it; bounds were set here for any values at or beyond the usual limits of such assays
condition.description: source organism: Influenza A virus (A/chicken/Vietnam/5/2003(H5N1))
experimental.endpoint: Kd

sequence.text	assayed.target	value.reported
RVDKLTQGR	HLA-B*07:02	≥ 20 µM

====

assayed.target: HLA-B*15:17
protocol.text: IEDB peptide-MHC binding, purified MHC/competitive/fluorescence; filed as Kd, often an IC50 or EC50 that approximates it; bounds were set here for any values at or beyond the usual limits of such assays
condition.description: source organism: Neembucu hantavirus
pKd: −log10 of the molar value.

sequence.text	pKd
ETESATLFT	≤ 4.70

The origin of these recorded values is the Immune Epitope Database (IEDB).
